# Tested on: hypertriglyceridemia caused by fructose
# procedure-summary: Test A: decrease of triglycerides content in the serum of rats due to hypertriglyceridemia caused by fructose
# Format: in vivo, Male Wistar rats
# test-context: Table 3, oral
We begin with a simple list: items and their reported ED50, Test diet of fructose.
Record the value in mmole/Kg/os/die, omitting the unit from your answer.

Check out these entries, answers already filled in.
Return ED50, Test diet of fructose for the following compound: CC(C)(CCCCCCC(C)(C)COC(=O)c1cccnc1)COC(=O)c1cccnc1 [Example 3]
0.0034

Give the measured ED50, Test diet of fructose for CC(C)(CCCCCCCC(C)(C)COC(=O)c1cccnc1)COC(=O)c1cccnc1 [Example 4]
0.0029

Tell us which ED50, Test diet of fructose value is on record for CC(C)(CCCCCCCCC(C)(C)COC(=O)c1cccnc1)COC(=O)c1cccnc1 [Example 5]
0.0026

Continuing:
Supply recorded ED50, Test diet of fructose for O=C(O)c1cccnc1 [Nicotinic acid, reference compound] here.
0.4760

====

# Tested on: hypertriglyceridemia caused by fructose
# procedure-summary: Test A: decrease of triglycerides content in the serum of rats due to hypertriglyceridemia caused by fructose
# Assay type: in vivo, Male Wistar rats
# test-context: Rattus norvegicus, po, 72 h, Table 2, acids and alcohols, 50 mg/Kg/os/die, three days, fructose diet, read-out: ΔTGhematic (percent decrease of the hematic triglycerides)
Reported change in vivo at 50 mg/kg values for a set of compounds
// units = %; emit number, no label

Previously resolved entries follow.
Using the record for CCC(C)(CO)CCCCCCCC(C)(CC)CO (centres unmarked) [Example 16] , state its measured change in vivo at 50 mg/kg.
-90

Entry CCCC(C)(CO)CCCCCCCCC(C)(CO)CCC (centres unmarked) [Example 22] needs its change in vivo at 50 mg/kg filled in; supply it.
-45.2

Answer with the recorded change in vivo at 50 mg/kg of CCCC(C)(CCCCCCCCC(C)(CCC)C(=O)O)C(=O)O (centres unmarked) [Example 21] only.
-64.3

Indicate the recorded change in vivo at 50 mg/kg value for this compound: CCCC(C)(CO)CCCCCCC(C)(CO)CCC (centres unmarked) [Table 2 No. 10]
-88.3

Read off the recorded change in vivo at 50 mg/kg for CCCCC(C)(CCCCCCC(C)(CCCC)C(=O)O)C(=O)O (centres unmarked) [Table 2 No. 11]
-65.4

Kindly indicate its recorded change in vivo at 50 mg/kg. Item: CCCCC(C)(CO)CCCCCCC(C)(CO)CCCC (centres unmarked) [Table 2 No. 12]
-58.7

Given CCCCC(C)(CCCCCCCCC(C)(CCCC)C(=O)O)C(=O)O (centres unmarked) [Example 23] , respond with its change in vivo at 50 mg/kg.
-62.4

// fetch change in vivo at 50 mg/kg given entry CCCC(C)(CCCCCCC(C)(CCC)C(=O)O)C(=O)O (centres unmarked) [Table 2 No. 9]
-89.5

Further cases:
Using known records, supply change in vivo at 50 mg/kg for CC(C)(CO)CCCCCCCC(C)(C)CO [Example 14]
-92

Return the recorded change in vivo at 50 mg/kg value; entry: CCC(C)(CCCCCCCCC(C)(CC)C(=O)O)C(=O)O (centres unmarked) [Example 19]
-57.4

Tell us which change in vivo at 50 mg/kg value is on record for CC(C)(CCCCCCCC(C)(C)C(=O)O)C(=O)O [Example 13]
-91.8

Indicate its recorded change in vivo at 50 mg/kg; the compound in question is CC(C)(CO)CCCCCCC(C)(C)CO [Table 2 No. 6, 2,2,9,9-tetramethyl-1,10-decanediol]
-94

Look up change in vivo at 50 mg/kg of CCC(C)(CCCCCCC(C)(CC)C(=O)O)C(=O)O (centres unmarked) [Example 7] and report it.
-82.1

====

# Test system: hypertriglyceridemia caused by fructose
# procedure-summary: Test A: decrease of triglycerides content in the serum of rats due to hypertriglyceridemia caused by fructose
# Type: in vivo, Male Wistar rats
# test-context: Rattus norvegicus, po, 72 h, Table 2, acids and alcohols, 50 mg/Kg/os/die, three days, fructose diet, read-out: ΔTGhematic (percent decrease of the hematic triglycerides)
I'd appreciate it if you marked entries y when change in vivo at 50 mg/kg is lower than -90% and n when it is not.

Hello, I'm reviewing records and need to know if change in vivo at 50 mg/kg of CCCCC(C)(CO)CCCCCCCCC(C)(CO)CCCC (stereo not shown) is below -90%. Could you check?
n

Hi there! Is change in vivo at 50 mg/kg for CCC(C)(CO)CCCCCCC(C)(CC)CO (stereo not shown) below -90%, do you know?
n

For this compound, is change in vivo at 50 mg/kg lower than -90%? CCC(C)(CCCCCCCC(C)(CC)C(=O)O)C(=O)O (stereo not shown)
y

More entries:
Is it true that change in vivo at 50 mg/kg reported for CC(C)(CO)CCCCCCCCC(C)(C)CO is less than -90%?
y

Hi there! Is change in vivo at 50 mg/kg for CCC(C)(CO)CCCCCCCCC(C)(CC)CO (stereo not shown) below -90%, do you know?
n

I'd appreciate it if you could check whether CC(C)(CCCCCCCCC(C)(C)C(=O)O)C(=O)O has change in vivo at 50 mg/kg smaller than -90%.
y

The measurements presented in this section are drawn from patent US4454145A.
